Test system: DMS 114 small cell lung
Assay: NCI tumour cell line growth inhibition, 48 h
REPORTED METRIC: TGI

COMPOUND | VALUE
CCOC(=O)C(C)(C)Oc1ccc2c(=O)cc(-c3ccc(Cl)cc3)oc2c1 | > 100 µM
COS(=O)c1cc(Cl)cc(Cl)c1O (stereo unspecified) | > 100 µM
N#CC(C#N)=C(N)/C(C#N)=C\c1ccnc2ccccc12 | 38.8 µM
CCCCC#COP(=O)(OCC)OCC | > 100 µM
O=[As](O)(O)c1cc(N=Nc2ccc(-c3ccc(N=Nc4cc([As](=O)(O)O)c(O)cc4O)cc3)cc2)c(O)cc1O | > 100 µM
CC(=O)O/N=C/c1ncccc1CO | > 100 µM

---

Tested on: SNB-78 CNS
Test: NCI tumour cell line growth inhibition, 48 h
# TGI per record follows

COMPOUND | TGI
Cc1cc2nc3c(=O)n(C)c(=O)nc-3n(-c3ccc(Cl)cc3)c2cc1C | 45.9 µM
COP1(=O)CC2C(Cl)(Cl)C2(C)C1 (stereo unspecified) | > 100 µM
O=[As](O)(O)c1cc(N=Nc2ccc(-c3ccc(N=Nc4cc([As](=O)(O)O)c(O)cc4O)cc3)cc2)c(O)cc1O | > 100 µM
CC(=O)NC(CCCCNC(=O)OCc1ccccc1)C(=O)NCc1ccccc1 (stereo unspecified) | > 100 µM
Cc1nc(N)sc1C(=O)/C=C/c1ccc(/C=C/C(=O)c2sc(NC(=O)CCCCCCCCC(=O)Nc3nc(C)c(C(=O)/C=C/c4ccc(/C=C/C(=O)c5sc(N)nc5C)cc4)s3)nc2C)cc1 | > 100 µM
Cc1cc2c(CC(=O)O)[nH]nc2c(C(=O)O)c1C | > 100 µM
CCCCC#COP(=O)(OCC)OCC | > 100 µM
C[CH2][Sn]1([CH2]C)[O]C(=O)[O][Sn]([CH2]C)([CH2]C)[O]1 | 37.4 µM
O=C1C=C(c2c(O)ccc3ccccc23)c2ccccc2C1=O | 8.64 µM
CC1CC(c2ccccc2)=Nc2ccccc2S1(=O)=O (stereo unspecified) | 30.8 µM
CC(=O)OCC1OC(n2c(-c3ccccc3)cc(-c3ccco3)c(C#N)c2=O)C(OC(C)=O)C(OC(C)=O)C1OC(C)=O (stereo unspecified) | > 100 µM

---

Examples of compounds with documented TGI follow.
Tested on: SN12C renal
Experiment: NCI tumour cell line growth inhibition, 48 h
REPORTED METRIC: TGI

COMPOUND | VALUE
O=C(O)C1CCc2ccc3ccccc3c2C1c1cccc2ccccc12 (stereo not drawn) | 59.3 µM
O=C(O)c1ccccc1/C=N\NC1=NCCCCN1 | > 100 µM
CCCCSc1n/c(=C\c2ccc(N(C)C)cc2)c2nnnn12 | > 100 µM
COC(OC)C(O)C1OC=CC1n1cnc2c(N)ncnc21 (stereo not drawn) | > 100 µM
CN1C2CC(=O)CC1[C@@H]1OC(c3ccccc3)O[C@H]21 (stereo partly drawn) | > 100 µM
O=C1C(Br)=C[C@H]2C3C=CC(Br)(C3=O)[C@@H]12 (stereo partly drawn) | 25.9 µM
COc1cc(-c2nc3ccc(C)cc3[nH]2)ccc1OCC(=O)N=Nc1c(O)[nH]c2ccccc12 | 3.19 µM
O=C(c1ccco1)N(C(=S)OCc1ccccn1)c1ccccc1 | > 100 µM
Nc1ccc(C(=O)N/C(=C\C=C\c2ccco2)c2nc3[nH]c(=S)[nH]c(=O)c3[nH]2)cc1 | > 100 µM
Cc1ccc2c(c1)OC1Nc3ccccc3C1=C2O (stereo not drawn) | 93.4 µM
CC(=O)O/N=C/c1ncccc1CO | > 100 µM
COc1ccc(-c2c(C3=NCCN3)nnn2-c2ccccc2)cc1 | > 100 µM
COc1cc(/C=C/c2cc(C(F)(F)F)[nH]c(=O)n2)ccc1OCc1ccccc1F | 32.6 µM
OC1OC(c2ccco2)C(F)(F)C(F)(F)C1(F)F (stereo not drawn) | > 100 µM
CC1=CSC2=NC(c3ccc(Cl)c(Cl)c3)=CC(c3ccc(Cl)cc3)N12 (stereo not drawn) | > 100 µM
CCOC(=O)C(C)(C)Oc1ccc2c(=O)cc(-c3ccc(Cl)cc3)oc2c1 | > 100 µM
O=C(NNC(=S)Nc1ccccc1)c1csc(NC(=S)NC2CCCCC2)n1 | > 100 µM
Nc1c(C(=O)c2ccccc2)sc2nc(-c3cccs3)ccc12 | 27.4 µM
c1cnc2c(c1)-n1cccc1C1(CCSCC1)NN2 | > 100 µM
O=C1C=CC(=O)c2ncccc21 | 16 µM
CN1CCN(CCSC2Cc3cc(Cl)ccc3Sc3ccccc32)CC1 (stereo not drawn) | 23.7 µM
CC1=C2C(O)C(C(C)CO)C(O)CC2(C)C(O)CC1 (stereo not drawn) | > 100 µM
CCOC(=O)c1sc2c(c1OC(=O)c1ccccc1)c(=O)n(-c1ccccc1)c(=S)n2-c1ccccc1 | > 100 µM

---

Tested on: PC-3 prostate
Assay: NCI tumour cell line growth inhibition, 48 h
Parameter TGI: see the listing below.

COMPOUND | TGI
COc1cc(/C=C/c2cc(C(F)(F)F)[nH]c(=O)n2)ccc1OCc1ccccc1F | 29 µM
O=C1c2ccccc2CC12Cc1ccc3c(c1C2)CCC3 (stereo unspecified) | > 100 µM
c1ccc2c(c1)[I+]c1ccccc1-2 | > 50 µM
O=C(NCCNCCO)N/N=C/c1ccc(Cl)cc1 | > 100 µM
CSc1ncc2c(n1)-c1ccccc1OC2N1CCCC1 (stereo unspecified) | > 100 µM
COc1cc(OC)c(/C=C/c2ccc3ccccc3[n+]2C)c(OC)c1 | 17.3 µM
C/C=C/[C@H]1O[C@@](OC)([C@@H](C)[C@H](O)[C@H](C)[C@H]2OC(=O)/C(OC)=C/C(C)=C/[C@@H](C)[C@@H](O)[C@@H](C)[C@@H](O)[C@H](C)C/C(C)=C/C=C/[C@@H]2OC)CC(OC2CC(O)C(OC(N)=O)C(C)O2)[C@@H]1C (stereo partly specified) | 6.09 µM
CCN(CC)CCNc1c(OC)cc(C)c2sc3ccccc3c(=O)c12 | 20.8 µM
CSCCC(NC(=O)OC(C)(C)C)C(=O)NCCNc1ccc(NCCNC(=O)C(CCSC)NC(=O)OC(C)(C)C)c2c1C(=O)c1ccccc1C2=O (stereo unspecified) | 17.7 µM
COc1ccc(OC)c2cc(Cc3ccc(N(C)C)cc3)c(=O)c(Cc3ccc(N(C)C)cc3)cc12 | > 100 µM
O=C(NNC(=S)Nc1ccccc1)c1csc(NC(=S)NC2CCCCC2)n1 | > 100 µM

---

System: SNB-75 CNS
Assay: NCI tumour cell line growth inhibition, 48 h
REPORTED METRIC: TGI (µM)

COMPOUND | OUTPUT UNIT | VALUE RELATION SIGN | VALUE
CN1CC(c2ccccc2)N(CCCCN2CC(c3ccccc3)N(C)CC2c2ccccc2)CC1c1ccccc1 (stereo not given) | µM | > | 100
COc1ccc(NC2Oc3cc4c(cc3C(c3cc(OC)c(O)c(OC)c3)C2C)OCO4)cc1 (stereo not given) | µM | = | 15
C=CC(=O)N1CCCC(n2nc(-c3ccc(Oc4ccccc4)cc3)c3c(N)ncnc32)C1 (stereo not given) | µM | = | 14.2
O=C(Nc1ccccc1C(F)(F)F)c1cccc(NC2=C(Cl)C(=O)N(Cc3ccccc3)C2=O)c1 | µM | > | 57.6
COc1ccc2c(c1)CCc1c-2n(CCN(C)C)c2ccc(OC)cc12 | µM | = | 76.5
CCOc1ccccc1NC(=O)/C=C1\NC(=O)CS1 | µM | = | 98.7
CC1=C2C(O)C(C(C)CO)C(O)CC2(C)C(O)CC1 (stereo not given) | µM | > | 100
CN(C(=O)c1ccc(Cl)s1)C(=S)N(C)C(=O)c1ccc(Cl)s1 | µM | > | 10
c1ccc2c(c1)[I+]c1ccccc1-2 | µM | > | 50
Nc1nc2c(ncn2C2C=CC(CO)O2)c(=O)[nH]1 (stereo not given) | µM | > | 100

---

System: SF-539 CNS
Test: NCI tumour cell line growth inhibition, 48 h; in the data active = GI50 below about 0.43 µM; inactive = the rest
Labels: active, inactive

COMPOUND | LABEL
COc1cc([C@H](C)c2ccc3ccccc3c2)cc(OC)c1OC | active
O=C(Oc1ccc(O)c2c(=O)n3c(cc12)[nH]c1ccccc13)c1ccccc1 | inactive
COc1cc(OC2OC(C)C(O)C(O)C2O)cc2oc(-c3ccc(O)cc3)c(CC=C(C)C)c(=O)c12 (stereo not drawn) | inactive
Cc1ccc(C(=O)c2oc3ccc4c(C)cc(=O)oc4c3c2C)cc1 | inactive
CC(=O)Oc1cc(C)ccc1[C@]1(C)CC[C@H](C)/C1=C\Br | inactive
CC[N+](CC)=c1ccc2nc3c(cc(N)c4ccccc43)oc-2c1 | active
CCCCCCC/C=C/[C@H]1O[C@]23C(=O)C[C@@]4(C[C@@H](OC5OC(CO)C(O)C(O)C5O)C[C@@H]4[C@H]2C=C1C)OC3=O (stereo partly drawn) | inactive
Nc1c(C(=O)c2ccccc2)sc2nc(-c3cccs3)ccc12 | active
COc1cc2c(cc1OCc1ccccc1)N=C[C@@H]1C/C(=C/C(=O)NCCCN3C(=O)c4cccc5cccc(c45)C3=O)CN1C2=O | active
COc1cc(-c2nc3ccc(C)cc3[nH]2)ccc1OCC(=O)N=Nc1c(O)[nH]c2ccccc12 | inactive
COc1cc2nc(-c3ccc(C(F)(F)F)cc3)cc(OCCCN3CCOCC3)c2cc1OC | inactive
CCCCNc1nc(NC(C)(C)C)nc(NC(C)(C)C)n1 | inactive
C=CCn1c(C)nc2cc(Nc3nc(Nc4ccc5nc(C)n(CC=C)c5c4)c4ccccc4n3)ccc21 | inactive

Taken from PubChem BioAssay (NCI).
